B1: library; a variant is named by its letters at N, in order (parent)
chain: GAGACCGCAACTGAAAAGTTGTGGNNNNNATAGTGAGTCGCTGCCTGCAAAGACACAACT

variants of: B1; assay: ligation selection enrichment (abundance after / before one-round selection) (fold); higher = more template-directed ligation activity; settings: with T7Psub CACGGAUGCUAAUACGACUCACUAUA; MgCl2 25 mM; 42 °C; 4 h; pH 8.5
property: ligation selection enrichment

Some solved cases for reference:
> print(dat)
                                    seq.text  observed.measurement
 1  GAGACCGCAACTGAAAAGTTGTGGTCCGAATAGTGAGTCGCTGCCTGCAAAGACACAACT                 0.205
 2  GAGACCGCAACTGAAAAGTTGTGGTGGATATAGTGAGTCGCTGCCTGCAAAGACACAACT                   233
 3  GAGACCGCAACTGAAAAGTTGTGGGAGTAATAGTGAGTCGCTGCCTGCAAAGACACAACT                  0.27
 4  GAGACCGCAACTGAAAAGTTGTGGAGCTCATAGTGAGTCGCTGCCTGCAAAGACACAACT                 0.104
 5  GAGACCGCAACTGAAAAGTTGTGGATTTTATAGTGAGTCGCTGCCTGCAAAGACACAACT                 0.471
 6  GAGACCGCAACTGAAAAGTTGTGGTGACGATAGTGAGTCGCTGCCTGCAAAGACACAACT                  0.49
 7  GAGACCGCAACTGAAAAGTTGTGGGCTCTATAGTGAGTCGCTGCCTGCAAAGACACAACT                 0.165
 8  GAGACCGCAACTGAAAAGTTGTGGTCAGGATAGTGAGTCGCTGCCTGCAAAGACACAACT                 0.337
 9  GAGACCGCAACTGAAAAGTTGTGGACACAATAGTGAGTCGCTGCCTGCAAAGACACAACT                 0.134
10  GAGACCGCAACTGAAAAGTTGTGGCATGTATAGTGAGTCGCTGCCTGCAAAGACACAACT                 0.109

Proceed to the following item.
Need ligation selection enrichment, item GAGACCGCAACTGAAAAGTTGTGGCAAGCATAGTGAGTCGCTGCCTGCAAAGACACAACT
0.137
